- system-tested: GLP-1 receptor (Homo sapiens, UniProt P43220)
- Sequence (P43220 24-463): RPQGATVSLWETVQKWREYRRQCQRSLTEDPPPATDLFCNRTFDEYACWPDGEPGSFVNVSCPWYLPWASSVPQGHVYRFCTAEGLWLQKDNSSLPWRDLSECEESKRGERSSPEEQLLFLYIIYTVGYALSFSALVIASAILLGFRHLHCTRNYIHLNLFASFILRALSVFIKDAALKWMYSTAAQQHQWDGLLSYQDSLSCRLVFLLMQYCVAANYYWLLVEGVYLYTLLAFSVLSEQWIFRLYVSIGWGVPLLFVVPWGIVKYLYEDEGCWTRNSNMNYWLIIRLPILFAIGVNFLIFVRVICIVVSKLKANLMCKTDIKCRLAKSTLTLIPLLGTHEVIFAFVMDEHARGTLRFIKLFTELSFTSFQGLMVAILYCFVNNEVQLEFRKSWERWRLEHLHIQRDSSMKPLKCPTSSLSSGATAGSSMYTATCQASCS
- test-summary: FLIPR calcium flux assay, agonist format, GLP-1
- Format: cell-based
- protocol-conditions: Emax of reference ligand Glucagon as 100%

[
  {
    "compound": "CN(Cc1ccccc1)C1CCN(C(C(=O)NCC[C@@H](Oc2ccc(C(F)(F)F)cc2)c2ccccc2)c2nc(-c3ccc(C(F)(F)F)cc3)no2)CC1 (stereo partly shown)",
    "activation at 1 µM / %": 21.3
  },
  {
    "compound": "CC(C)Cc1ccc(C2(C(=O)N(C)CC[C@@H](Oc3ccc(C(F)(F)F)cc3)c3ccccc3)CC2)cc1 [Compound 36a]",
    "activation at 1 µM / %": 4.4
  },
  {
    "compound": "C[C@@H](C(=O)N(C)CC[C@H](Oc1ccc(C(F)(F)F)cc1)c1ccccc1)c1ccc(C(F)(F)F)cc1 [Compound 33e]",
    "activation at 1 µM / %": 0.4
  },
  {
    "compound": "CC(C)Cc1ccc([C@H](C)C(=O)NCC[C@@H](Oc2ccc(C(F)(F)F)cc2)c2ccccc2)cc1",
    "activation at 1 µM / %": 39.9
  }
]

====

- system-tested: CB1 receptor (Homo sapiens, UniProt P21554)
- Sequence (P21554 whole entry): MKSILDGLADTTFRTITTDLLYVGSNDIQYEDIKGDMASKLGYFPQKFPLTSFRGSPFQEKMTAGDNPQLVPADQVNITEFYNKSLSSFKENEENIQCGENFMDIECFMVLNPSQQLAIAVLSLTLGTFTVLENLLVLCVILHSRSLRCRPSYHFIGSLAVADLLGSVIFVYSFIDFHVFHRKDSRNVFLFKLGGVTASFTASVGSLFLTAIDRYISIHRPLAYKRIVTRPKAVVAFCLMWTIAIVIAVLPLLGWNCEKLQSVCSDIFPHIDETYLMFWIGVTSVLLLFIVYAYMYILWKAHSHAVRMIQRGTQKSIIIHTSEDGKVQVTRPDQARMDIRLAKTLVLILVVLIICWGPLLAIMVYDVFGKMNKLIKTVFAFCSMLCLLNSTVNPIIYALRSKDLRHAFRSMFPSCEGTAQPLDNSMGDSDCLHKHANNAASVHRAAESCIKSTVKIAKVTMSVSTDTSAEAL
- test-summary: FLIPR calcium flux assay, antagonist format, CB1
- Type: cell-based
- protocol-conditions: reference agonist CP-55,940 at EC80 as 0% inhibition
- Experimental: A FLIPR assay was conducted to monitor agonist and antagonist selectivity for compounds of the invention against the CBI and GLP-1 receptors. Percentage activation and percentage inhibition values were determined for each compound on each of the GPCRs listed above. Agonist selectivity was determined upon initial addition of compounds followed by 10 minute incubation at 25° C. Following compound incubation, reference agonists were added at EC80 to determine percentage inhibition. […]
inhibition at 1 µM reference
value-type: inhibition at 1 µM (%)

[
  {
    "compound": "CC(C)Cc1ccc(C2(C(=O)N(C)CC[C@H](Oc3ccc(C(F)(F)F)cc3)c3ccccc3)CC2)cc1 [Compound 36b]",
    "numeric-readout": 15.5
  },
  {
    "compound": "C[C@@H](C(=O)N(C)CC[C@@H](Oc1ccc(C(F)(F)F)cc1)c1ccccc1)c1ccc(C(F)(F)F)cc1 [Compound 33c]",
    "numeric-readout": 80.1
  },
  {
    "compound": "CC(C)Cc1cccc(C(C)C(=O)N(C)CC[C@@H](Oc2ccc(C(F)(F)F)cc2)c2ccccc2)c1 (stereo partly drawn) [Compound 35a]",
    "numeric-readout": 80.5
  },
  {
    "compound": "O=C(c1ccccc1)c1ccc2n1CCC2C(=O)NCC[C@@H](Oc1ccc(C(F)(F)F)cc1)c1ccccc1 (stereo partly drawn)",
    "numeric-readout": 48.7
  },
  {
    "compound": "CCc1ccc(C(C)C(=O)N(C)CC[C@@H](Oc2ccc(C(F)(F)F)cc2)c2ccccc2)cc1 (stereo partly drawn) [Compound 34a]",
    "numeric-readout": 99
  },
  {
    "compound": "CC(C(=O)N(C)CC[C@H](Oc1ccc(C(F)(F)F)cc1)c1ccccc1)c1ccc(CN(C)C)cc1 (stereo partly drawn) [Compound 25b]",
    "numeric-readout": 15.2
  }
]
